tested on: TK-10; assay: GI50 of drug in presence of dasatinib; higher = less potent; conditions: treatment: drug + dasatinib (fixed dose, not stated); 5 days
The following molecules are shown together with reported GI50 of drug values.

[
  {
    "molecule": "Cc1cc2c(F)c(Oc3ncnn4cc(OC[C@@H](C)OC(=O)[C@H](C)N)c(C)c34)ccc2[nH]1 + Cc1nc(Nc2ncc(C(=O)Nc3c(C)cccc3Cl)s2)cc(N2CCN(CCO)CC2)n1 [dasatinib]",
    "targetOrTestSystem": "TK-10",
    "GI50 of drug": "> 10 µM"
  },
  {
    "molecule": "C[C@]1(O)C[C@@H](c2nc(-c3ccc4ccc(-c5ccccc5)nc4c3)c3c(N)nccn32)C1 [Linsitinib (OSI-906)] + Cc1nc(Nc2ncc(C(=O)Nc3c(C)cccc3Cl)s2)cc(N2CCN(CCO)CC2)n1 [dasatinib]",
    "targetOrTestSystem": "TK-10",
    "GI50 of drug": "> 10 µM"
  },
  {
    "molecule": "Cc1ccc(NC(=O)c2ccc(CN3CCN(C)CC3)cc2)cc1Nc1nc(-c2cccnc2)cs1 [Masitinib (AB1010)] + Cc1nc(Nc2ncc(C(=O)Nc3c(C)cccc3Cl)s2)cc(N2CCN(CCO)CC2)n1 [dasatinib]",
    "targetOrTestSystem": "TK-10",
    "GI50 of drug": "> 10 µM"
  },
  {
    "molecule": "Cc1ccc(NC(=O)c2ccc(CN3CCN(C)CC3)cc2)cc1Nc1nccc(-c2cccnc2)n1 [Imatinib (Gleevec)] + Cc1nc(Nc2ncc(C(=O)Nc3c(C)cccc3Cl)s2)cc(N2CCN(CCO)CC2)n1 [dasatinib]",
    "targetOrTestSystem": "TK-10",
    "GI50 of drug": "> 10 µM"
  },
  {
    "molecule": "CNC(=O)c1ccc(C)c(-n2c(C)cc(OCc3ccc(F)cc3F)c(Br)c2=O)c1 + Cc1nc(Nc2ncc(C(=O)Nc3c(C)cccc3Cl)s2)cc(N2CCN(CCO)CC2)n1 [dasatinib]",
    "targetOrTestSystem": "TK-10",
    "GI50 of drug": "> 10 µM"
  },
  {
    "molecule": "CC(C)(C)c1cc(NC(=O)Nc2ccc(-c3cn4c(n3)sc3cc(OCCN5CCOCC5)ccc34)cc2)no1 [Quizartinib (AC220)] + Cc1nc(Nc2ncc(C(=O)Nc3c(C)cccc3Cl)s2)cc(N2CCN(CCO)CC2)n1 [dasatinib]",
    "targetOrTestSystem": "TK-10",
    "GI50 of drug": "> 10 µM"
  },
  {
    "molecule": "O=C1NC(=O)C(=Cc2ccc(-c3ccc(F)cc3)o2)S1 (stereo in doubt) + Cc1nc(Nc2ncc(C(=O)Nc3c(C)cccc3Cl)s2)cc(N2CCN(CCO)CC2)n1 [dasatinib]",
    "targetOrTestSystem": "TK-10",
    "GI50 of drug": "> 10 µM"
  },
  {
    "molecule": "CS(=O)(=O)O.N#CC1(c2ccc(NC(=O)c3cccnc3NCc3ccncc3)cc2)CCCC1 [Apatinib (YN968D1)] + Cc1nc(Nc2ncc(C(=O)Nc3c(C)cccc3Cl)s2)cc(N2CCN(CCO)CC2)n1 [dasatinib]",
    "targetOrTestSystem": "TK-10",
    "GI50 of drug": "> 10 µM"
  },
  {
    "molecule": "CNC(=O)c1nn(C)c2c1C(C)(C)Cc1cnc(Nc3ccc(N4CCN(C)CC4)cc3)nc1-2 + Cc1nc(Nc2ncc(C(=O)Nc3c(C)cccc3Cl)s2)cc(N2CCN(CCO)CC2)n1 [dasatinib]",
    "targetOrTestSystem": "TK-10",
    "GI50 of drug": "0.137 µM"
  },
  {
    "molecule": "NC1(Cc2ccc(Cl)cc2)CCN(c2ncnc3[nH]ccc23)CC1 + Cc1nc(Nc2ncc(C(=O)Nc3c(C)cccc3Cl)s2)cc(N2CCN(CCO)CC2)n1 [dasatinib]",
    "targetOrTestSystem": "TK-10",
    "GI50 of drug": "2.13 µM"
  },
  {
    "molecule": "CCc1cnn2c(NCc3ccc[n+]([O-])c3)cc(N3CCCC[C@H]3CCO)nc12 + Cc1nc(Nc2ncc(C(=O)Nc3c(C)cccc3Cl)s2)cc(N2CCN(CCO)CC2)n1 [dasatinib]",
    "targetOrTestSystem": "TK-10",
    "GI50 of drug": "0.0141 µM"
  }
]
